Reference for the values: paper PMC9266914

I'd be grateful if you could share measured MIC C. glabrata CBS138 for these entries.
tested on: C. glabrata CBS138; assay: MIC determination, C. glabrata; type: cell-based, Candida glabrata; details: RPMIG, 24 h, 35 °C

Which MIC C. glabrata CBS138 is listed for CCCn1c2c(sc1=[Se])[S][Au-]1([S]c3sc(=[Se])n(CCC)c3[S]1)[S]2.c1ccc([P+](c2ccccc2)(c2ccccc2)c2ccccc2)cc1 [[P][AuSPr(=Se)]] ?
>62.5 µg/mL

Which MIC C. glabrata CBS138 is listed for CCn1c2c(sc1=O)[S][Au-]1([S]c3sc(=O)n(CC)c3[S]1)[S]2.c1ccc([P+](c2ccccc2)(c2ccccc2)c2ccccc2)cc1 [[P][AuSEt(=O)]] ?
>62.5 µg/mL

Which MIC C. glabrata CBS138 is listed for CC(C)n1c2c(sc1=S)[Se][Au-]1([Se]c3sc(=S)n(C(C)C)c3[Se]1)[Se]2.c1ccc([P+](c2ccccc2)(c2ccccc2)c2ccccc2)cc1 [[P][AuSeiPr(=S)]] ?
>31.25 µg/mL

Which MIC C. glabrata CBS138 is listed for CCn1c2c(sc1=[Se])[Se][Au-]1([Se]c3sc(=[Se])n(CC)c3[Se]1)[Se]2.c1ccc([P+](c2ccccc2)(c2ccccc2)c2ccccc2)cc1 [[P][AuSeEt(=Se)]] ?
>62.5 µg/mL

Which MIC C. glabrata CBS138 is listed for CCn1c2c(sc1=S)[S][Au-]1([S]c3sc(=S)n(CC)c3[S]1)[S]2.c1ccc([P+](c2ccccc2)(c2ccccc2)c2ccccc2)cc1 [[P][AuSEt(=S)]] ?
>62.5 µg/mL

Which MIC C. glabrata CBS138 is listed for CCN1C(=C(C#N)C#N)SC2=C1[S][Au-]1([S]2)[S]C2=C([S]1)N(CC)C(=C(C#N)C#N)S2.CC[N+](CC)(CC)CC [[N][AuSEt(=C(CN)2)]] ?
>62.5 µg/mL

Which MIC C. glabrata CBS138 is listed for CCCCn1c2c(sc1=S)[S][Au-]1([S]c3sc(=S)n(CCCC)c3[S]1)[S]2.c1ccc([P+](c2ccccc2)(c2ccccc2)c2ccccc2)cc1 [[P][AuSBu(=S)]] ?
>62.5 µg/mL

Which MIC C. glabrata CBS138 is listed for CCn1c2c(sc1=[Se])[S][Au-]1([S]c3sc(=[Se])n(CC)c3[S]1)[S]2.c1ccc([P+](c2ccccc2)(c2ccccc2)c2ccccc2)cc1 [[P][AuSEt(=Se)]] ?
>62.5 µg/mL

Which MIC C. glabrata CBS138 is listed for CCCn1c2c(sc1=S)[Se][Au-]1([Se]c3sc(=S)n(CCC)c3[Se]1)[Se]2.c1ccc([P+](c2ccccc2)(c2ccccc2)c2ccccc2)cc1 [[P][AuSePr(=S)]] ?
>125 µg/mL
